tested on: HOP-18; assay: NCI tumour cell line growth inhibition, 48 h
Activity calls are given as the source filed them. Cut-off read from the data, not from the text of the source: active = GI50 up to about 1.1 µM and inactive = higher.
Tick one outcome: active, inactive

Past entries and their recorded results:
>>> print(df.to_string())
                                   compound  qualitative_label
0  COc1cc2c(c(OC)c1OC)-c1ccc(OC)c(=O)cc1[C@@H](NC(=O)c1ccccc1)CC2           inactive
1    O=C(Cc1nc2ccccc2s1)Nc1cccc(C(F)(F)F)c1           inactive

[in] Call for entry `CCCCOCN/C(N)=N/C#N` :
[out] inactive

[in] Hi team, can someone confirm the assay call for `CC[n+]1c(/C=C/c2ccc(N(CCCl)CCCl)cc2)ccc2cc(NC(=O)/C=C/c3ccccc3)ccc21` ?
[out] inactive

---

system: MDA-MB-435; assay: NCI tumour cell line growth inhibition, 48 h
Activity calls are given as the source filed them. No stated cut-off is given here; in the data, active = GI50 up to about 1.1 µM and inactive = higher.
Return exactly one item of active, inactive

                                   compound  system_name  qualitative_label
0  Cc1nn(-c2ccccc2)c2nc3c(c(C)nn3-c3ccccc3)c(-c3ccc(C(F)(F)F)cc3)c12   MDA-MB-435           inactive
1  O=C1C[C@@H](c2ccc(O)cc2)[C@@]2(O1)C(=O)O[C@H]([C@@H](O)CO)[C@@H]2O   MDA-MB-435           inactive
2  ClC1=C(Cl)C2OC3C=CCC3OC2C(Cl)=C1Cl (stereo not given)   MDA-MB-435           inactive
3  COC(=O)[C@H]1ON2O[C@H](OC3CCCC[C@@H]3c3ccccc3)C[C@@H]3CC[C@H]1[C@@]32C (stereo not given in full)   MDA-MB-435           inactive

Okay, next one:
[in] Look up the recorded call for `CCCCC(=O)OC[n+]1ccc2c(C)c3[nH]c4ccc(OC)cc4c3c(C)c2c1` in this test.
[out] active

---

tested on: SN12C; assay: NCI tumour cell line growth inhibition, 48 h
Activity calls are given as the source filed them. Cut-off read from the data, not from the text of the source: active = GI50 up to about 1.1 µM and inactive = higher. Where a SMILES comes first, the peptide text is derived from it. The star is where a group is joined. Cbz = O=C(OCc1ccccc1)*; Boc = CC(C)(C)OC(=O)*; OSu = O=C1CCC(=O)N1O*; Bn = c1ccc(C*)cc1
REPORTED ENDPOINT: GI50

Solved cases below.
COMPOUND	SYSTEM NAME	ASSAY RESULT
CC(C)(C)OC(=O)NC(Cc1ccc(OCc2ccccc2)cc1)C(=O)NC(CCCCNC(=O)OCc1ccccc1)C(=O)ON1C(=O)CCC1=O (configuration not stated) (Boc-Tyr(Bn)-Lys(Cbz)-OSu; configuration not given here)	SN12C	16.7 µM (inactive)
O=C(/C=C/c1ccccc1)CSc1nc[nH]n1	SN12C	> 100 µM (inactive)

[in] Check the records and state GI50 for `O=C(/C=C(\O)C(=O)O)/C=C(\O)c1ccccc1`
[out] > 4.65 µM (inactive)

[in] Identify measured GI50 corresponding to Cn1cc2ccccc2c1-c1nc(F)nc(Oc2ccc3c(c2)CC[C@@H]2C3CC[C@@]3(C)C2CC[C@@H]3O)n1 (some centres not stated)
[out] 7.87 µM (inactive)

[in] Given `Nc1ccc2c(c1)Nc1c3ccccc3nc3cccc-2c13` , respond with its GI50.
[out] 1.29 µM (inactive)

[in] Given the compound `Cc1nn(C)c(=O)c2nn(-c3ccccc3)c(C)c12` , write its reported GI50.
[out] > 100 µM (inactive)

[in] Name the recorded GI50 of the compound listed here: `O=C1C(NS(=O)(=O)c2ccccc2)=C(N(Cc2ccccc2)Cc2ccccc2)C(=O)c2ccccc21`
[out] 41.5 µM (inactive)
